Target: T1, NativeRPtag(large)_with_Tags_and_Cys (Thermoanaerobacter tengcongensis)
T1 construct: Unlabeled in anisotropy assays; coupled through the engineered N-terminal Cys to SulfoLink agarose or maleimide plates in column, pull-down and ELISA assays
T1 chain: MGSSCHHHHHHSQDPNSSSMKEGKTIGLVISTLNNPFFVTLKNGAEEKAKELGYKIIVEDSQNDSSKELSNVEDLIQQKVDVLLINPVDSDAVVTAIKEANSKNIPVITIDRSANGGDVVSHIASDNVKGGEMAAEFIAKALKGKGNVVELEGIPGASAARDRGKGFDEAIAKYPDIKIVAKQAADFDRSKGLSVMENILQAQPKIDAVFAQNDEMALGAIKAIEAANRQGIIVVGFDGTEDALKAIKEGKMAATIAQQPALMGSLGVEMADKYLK
Assay: fluorescence anisotropy, competitor chase
No end group written: not given here. *: point of attachment. RhodamineB = CCN(CC)c1ccc2c(-c3ccccc3C(=O)*)c3ccc(=[N+](CC)CC)cc-3oc2c1
measurement_label: koff

Some solved cases for reference:
binder: RhodamineB-FIPAELKLITK [RPtag(small) Nd6, Cd4]
value_observed: > 0.0333 s⁻¹
--
binder: RhodamineB-GEKIPNFIPAELKLI [RPtag(small) Cd6]
value_observed: > 0.0333 s⁻¹

Please turn your attention to the following entry.
Sample RhodamineB-LITKENVQ [RPtag(small) Nd13] ; koff observed: > 0.0333 s⁻¹
